Let's look at some molecules and their measured GI50.
Test system: U251 CNS
Test: NCI tumour cell line growth inhibition, 48 h

Past entries and their recorded results:
> print(dat)
                                   molecule     result
1  CCN1C(=O)N(CC)C2C1NN=c1s/c(=C3\C(=O)N(C(C)C)c4ccccc43)c(=O)n12 (stereo not given)   0.378 µM
2  c1ccc2[nH]c(-c3ccc(N4CCN(c5ccc(-c6nc7ccccc7[nH]6)cc5)CC4)cc3)nc2c1    41.3 µM
3  COc1cc2c(cc1OC)-c1ccc3cc4c(cc3c1N(CCN1CCCC1)C2)OCO4   0.563 µM
4        CCCN(Cc1ccc(F)cc1)c1ccc(CO)c(Cl)c1    2.48 µM
5  COc1cc(Cn2cc3c(c2)-c2oncc2CC3)cc(OC)c1OC  0.0387 µM

Now let's try a different one.
query: Endpoint output: GI50 of N=C(N)c1nn(C2OC(CO)C(O)C2O)c2nc[nH]c(=O)c12 (stereo not given) . Value?
result: 2.06 µM

* * *

Let's look at some molecules and their measured TGI.
System: NCI-H23 lung
Test: NCI tumour cell line growth inhibition, 48 h

Past entries and their recorded results:
> print(dat)
                                   molecule    result
1  O=C1c2cc3c(cc2CC12Cc1cc4c(cc1C2=O)CCCC4)CCCC3  > 100 µM
2             O=C(NO)c1ccc([N+](=O)[O-])cc1  > 100 µM
3  COc1cc2nc(Cl)nc(Nc3cccc(C(=O)/C=C/c4ccccc4)c3)c2cc1OC  > 100 µM
4           O=C1NC(N2CCOCC2)=N/C1=C\c1cccs1  > 100 µM
5  C[C@]12CC[C@H]3[C@@H](CCC4=CC(=O)CC[C@@H]43)[C@@H]1CC[C@@H]2OC(=O)N(CCCl)N=O   33.7 µM

query: Lab note: need TGI with NCI-H23 lung for entry O=c1[nH]c(=O)n(C2OC(CO)C(O)C(F)C2O)cc1F (stereo not drawn) , please look it up.
result: > 100 µM

query: Lab note: need TGI with NCI-H23 lung for entry CCc1nnc(CC)n1NCCCC(=O)O , please look it up.
result: > 100 µM

query: Lab note: need TGI with NCI-H23 lung for entry NS(=O)(=O)c1cc2c(cc1Cl)NC(C(=O)c1cc(=O)c3ccc(O)cc3o1)=NS2(=O)=O , please look it up.
result: > 100 µM

* * *

Tested on: PC-3 prostate
Assay: NCI tumour cell line growth inhibition, 48 h
readout-name: TGI (µM)
Output spec: scalar in µM, unitless text.

Past entries and their recorded results:
compound	TGI / µM
Fc1ccc2[nH]cc(Cc3c[nH]c4ccc(F)cc34)c2c1	35
C[C@H]1[C@H](C)N(Cc2ccccc2)P(=O)(C(O)/C=C/c2ccccc2)N1Cc1ccccc1 (some centres not stated)	13
Cc1cc(N2CCCCC2)nc(N(CCNc2ccnc3cc(Cl)ccc23)Cc2ccco2)n1	3.72

query: Endpoint output: TGI of CCN=C1C=CC(=C(c2ccc(N(C)C)cc2)c2ccc(N(C)C)cc2)c2ccccc21 . Value?
result: 1.06

query: Endpoint output: TGI of C[C@@]12C=CC3C/C(=N\C(N)=S)C=C(CCCC4OCCO4)[C@]3(CC1)C2 (some centres not stated) . Value?
result: 50.7

query: Endpoint output: TGI of CCCCc1ccc(Nc2nc(Cl)c3c(ncn3COCCOC(C)=O)n2)cc1 . Value?
result: 37.4

query: Endpoint output: TGI of CC1(C)CCC2(C(=O)OC3OC(CO)C(O)C(O)C3O)CC[C@]3(C)C(=CCC4C5(C)CC[C@H](OC6OC(C(=O)O)C(O)C(O)C6O)C(C)(C)C5CCC43C)C2C1 (some centres not stated) . Value?
result: 3.47

query: Endpoint output: TGI of O=C1C(Cl)=C(N/N=c2/[nH][nH]/c(=N/NC3=C(Cl)C(=O)c4ccccc4C3=O)c3ccccc23)C(=O)c2ccccc21 . Value?
result: 28.7

query: Endpoint output: TGI of CCCN(Cc1ccc(F)cc1)c1ccc(CO)c(Cl)c1 . Value?
result: 24.6

query: Endpoint output: TGI of COc1cc2nc(Cl)nc(Nc3cccc(C(=O)/C=C/c4ccccc4)c3)c2cc1OC . Value?
result: 27.8

query: Endpoint output: TGI of Cc1nc2sc(CCl)nn2c(=O)c1Cl . Value?
result: 25.1

* * *

Let's look at some compounds and their measured TGI.
Tested on: SNB-19 CNS
Experiment: NCI tumour cell line growth inhibition, 48 h

Past entries and their recorded results:
compound	TGI
COc1ccc2c(c1)CC[C@@H]1[C@@H]2CC[C@]2(C)C(=O)C3(CCCCC3)C[C@@H]12	> 100 µM
COc1cc(OCc2ccc3nc(-c4ccccc4)c(N)nc3c2)cc(OC)c1OC	> 100 µM
COc1cc(/C=C\c2ccccn2)cc(OC)c1OC	> 100 µM
O=c1c2cc(S(=O)(=O)Nc3ccccc3Cl)ccc2ncn1NS(=O)(=O)c1ccc(Br)cc1	> 37.5 µM

query: Lab note: need TGI with SNB-19 CNS for entry COc1cc(Br)c(OC)c2c(OC)cc(C)cc12 , please look it up.
result: > 100 µM

query: Lab note: need TGI with SNB-19 CNS for entry CCOC(C[C@H](O)[C@H]1COC(=S)S1)OCC , please look it up.
result: > 100 µM

query: Lab note: need TGI with SNB-19 CNS for entry Fc1cc(C2=C[C@H](c3ccc(Cl)cc3)NC(=S)N2)c(Cl)cc1Cl , please look it up.
result: > 100 µM

query: Lab note: need TGI with SNB-19 CNS for entry CC(C)=CCCC1(C)C=Cc2c(c(C)cc3c2[nH]c2cc(O)ccc23)O1 (stereo not drawn) , please look it up.
result: > 25 µM

* * *

Let's look at some compounds and their measured TGI.
Test system: OVCAR-4 ovarian
Test: NCI tumour cell line growth inhibition, 48 h
Output spec: scalar in µM, unitless text.

> print(dat)
                                   compound  numeric.result
1  N=C(N)c1nn(C2OC(CO)C(O)C2O)c2nc[nH]c(=O)c12 (stereo unspecified)            7.84
2  Cc1cc(N2CCCCC2)nc(N(CCNc2ccnc3cc(Cl)ccc23)Cc2ccco2)n1            4.42
3  Nc1ncnc2c1ccn2C1OC2COP(=O)(O)OC2C1O (stereo unspecified)             9.6
4  O=C(O)C1C(C(=O)O)C2C(=O)C=CC1N2Cc1ccccc1 (stereo unspecified)            16.3

query: Endpoint output: TGI of CCN(CC)CCOc1ccc(C(=C(C)c2ccc(Cl)cc2)c2ccc(OCCN(CC)CC)cc2)cc1 . Value?
result: 1.32

* * *

Test system: TK-10 renal
Assay: NCI tumour cell line growth inhibition, 48 h
Let's look at some molecules and their measured TGI.

Past entries and their recorded results:
> print(dat)
                                   molecule  readout.name     result
1  C=C1C(=O)C([Si](C)(C)C)=C2C=C(C)C3(CC3)C12C (stereo not given)           TGI   > 100 µM
2  OCC1OC(n2ccc3c2ncn2ncnc32)C(O)C1O (stereo not given)           TGI   > 100 µM
3  CCOC(=O)c1nc2ccc(C(F)(F)F)cc2nc1NCc1ccc(Cl)c(Cl)c1           TGI   > 100 µM
4  CCN1C(=O)N(CC)C2C1NN=c1s/c(=C3\C(=O)N(C(C)C)c4ccccc43)c(=O)n12 (stereo not given)           TGI  > 69.4 µM

query: Endpoint output: TGI of COC(=O)CCC(=O)N1Cc2cc(C)ccc2N(C(=O)CCC(=O)OC)Cc2cc(C)ccc21 . Value?
result: > 100 µM

* * *

Let's look at some molecules and their measured TGI.
Test system: HCT-116 colon
Test: NCI tumour cell line growth inhibition, 48 h

Past entries and their recorded results:
molecule	result
Nc1ncnc2c1ccn2C1OC2COP(=O)(O)OC2C1O (centres undefined)	10.4 µM
CC1(C)CCC2(C(=O)OC3OC(CO)C(O)C(O)C3O)CC[C@]3(C)C(=CCC4C5(C)CC[C@H](OC6OC(C(=O)O)C(O)C(O)C6O)C(C)(C)C5CCC43C)C2C1 (some centres undefined)	2.38 µM
COc1ccc(C2c3cc4c(cc3C(O)C3CCC(=O)N23)OCO4)cc1 (centres undefined)	> 100 µM
COC(=O)c1[nH]c(=S)[nH]c(=O)c1-c1ccc(Cl)cc1	> 50 µM
CC(=O)/C(=C\c1ccco1)C(=O)Nc1ccccc1	> 100 µM

query: Endpoint output: TGI of COc1cc2c(cc1OC)-c1ccc3cc4c(cc3c1N(CCN1CCCC1)C2)OCO4 . Value?
result: 1.76 µM

query: Endpoint output: TGI of COc1cc2cc(C(=O)N3CC(CCl)c4c3cc(NC(=O)C(C)(C)c3ccccc3[N+](=O)[O-])c3ccccc43)[nH]c2c(OC)c1OC (centres undefined) . Value?
result: > 600 µM

query: Endpoint output: TGI of C/C(CN1C(=O)c2ccccc2C1=O)=N\NS(=O)(=O)c1ccc(Br)cc1 . Value?
result: > 100 µM

query: Endpoint output: TGI of COc1cc2c(/C=C3/C(=O)Nc4ccc(Cl)cc43)c(Cl)n(Cc3ccccc3)c2cc1C . Value?
result: > 100 µM
